target-under-test: biotinylated extracellular domain of the human GIP receptor (bioGIPR) (human) (UniProt P48546)
Sequence (P48546 24-138 limits assumed): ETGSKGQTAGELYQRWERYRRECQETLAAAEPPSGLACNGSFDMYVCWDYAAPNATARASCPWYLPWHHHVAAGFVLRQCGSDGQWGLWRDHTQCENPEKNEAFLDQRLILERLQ
method-description: SPR single cycle kinetics, bioGIPR captured on chip; category A: pKD >9.0
*1 amine or outer side, *2 acyl side, *3 side chain or, on linkers, in order; H or OH if unused. Bridges are numbered along the chain shown (N, C = ends). Primed or numbered codes have the meaning given here. [ ]: non-standard residue; d: D form. The star is where a group is joined. Ttds = 1,13-diamino-4,7,10-trioxatridecan-succinamic acid, NCCCOCCOCCOCCCNC(=O)CCC(=O)*; DOTA(Ga) = O=C1CN2CCN3CCN(CC(=O)*)CCN(CC2)CC(=O)[O][Ga]([O]1)[O]C(=O)C3; DOTA(In) = O=C1CN2CCN3CCN(CC(=O)*)CCN(CC2)CC(=O)[O][In]([O]1)[O]C(=O)C3; APAc″ = 4-amino-1-carboxymethylpiperidine, NC1CCN(CC(=O)*)CC1; dE(AGLU) = D-glutamic acid bearing 1-amino-1-deoxy-D-glucitol; Pro(trans-4-NH2) = O=C([C@@H]1C[C@@H](N[*:3])CN1[*:1])[*:2]; DOTA = O=C(O)CN1CCN(CC(=O)O)CCN(CC(=O)*)CCN(CC(=O)O)CC1; 3MeBn = 3-methyl-benzylidene (derived from 1,3-xylene); 2Lut = 2,6-lutidylidene bridge between two thiols; Trp(5-Cl) = N[C@@H](Cc1c[nH]c2ccc(Cl)cc12)C(=O)O; Pyridine(2,6-diCH2) = c1cc(C[*:1])nc(C[*:2])c1; APAc = 4-amino-1-carboxymethylpiperidine; Glutaryl = O=C(CCCC(=O)[*:2])[*:1]; AGLU = 1-amino-1-deoxy-D-glucitol; Cya = N[C@@H](CS(=O)(=O)O)C(=O)O; Hyp = O=C(O)[C@@H]1C[C@@H](O)CN1; Cysteamide = C(CS[*:3])N[*:1]; Suc = O=C(CCC(=O)[*:2])[*:1]; GLUSEROL = not defined here; NTASEROL = not defined here; hSer = N[C@@H](CCO)C(=O)O; Api = NC1(C(=O)O)CCNCC1; Thp = NC1(C(=O)O)CCOCC1; Dap = NC[C@H](N)C(=O)O; Aib = CC(C)(N)C(=O)O
Hi there, I'd appreciate the recorded pKD for every entry that follows.

DWXXEXCXLIC (AGLU-Glutar; 5Clw; Hyp; D-leu; Apc(InDOTA); 2Lut bridge Cys-Cys; APAc; D-glu(AGLU); C-term NH2) [AGLU-Glutar-Asp-Trp-5Clw-Hyp-Glu-leu-[Cys(2Lut)-Apc(InDOTA)-Leu-Ile-Cys]-APAc-glu(AGLU)-NH2] :: > 9 pkd
{DOTA(In)-Ttds}-DW[Trp(5-Cl)][Hyp]E[dL]C[Aib]LI[Cysteamide] (linker 7-11 via 3MeBn; also: DOTA as indium complex (InDOTA)) [InDOTA-Ttds-Asp-Trp-5Clw-Hyp-Glu-leu-[Cys(3MeBn)-Aib-Leu-Ile-AET]] :: > 9 pkd
{AGLU-Glutaryl}-DW[Trp(5-Cl)][Hyp]E[dL]C[Thp]LIC-{APAc-dE(AGLU)-K(DOTA)-NH2} (linker 7-11 via Pyridine(2,6-diCH2)) [AGLU-Glutar-Asp-Trp-5Clw-Hyp-Glu-leu-[Cys(2Lut)-Thp-Leu-Ile-Cys]-APAc-glu(AGLU)-Lys(DOTA)-NH2] :: > 9 pkd

Consider the following items and state reported pKD for each.
1. Ac-DW[Trp(5-Cl)][Hyp][hSer][dL]C[Thp]LIC-NH2 (linker 7-11 via Pyridine(2,6-diCH2); SMILES CC[C@H](C)[C@@H]1NC(=O)[C@H](CC(C)C)NC(=O)C2(CCOCC2)NC(=O)[C@@H](NC(=O)[C@@H](CC(C)C)NC(=O)[C@H](CCO)NC(=O)[C@@H]2C[C@@H](O)CN2C(=O)[C@H](Cc2c[nH]c3ccc(Cl)cc23)NC(=O)[C@H](Cc2c[nH]c3ccccc23)NC(=O)[C@H](CC(=O)O)NC(C)=O)CSCc2cccc(n2)CSC[C@@H](C(N)=O)NC1=O) [Ac-Asp-Trp-5Clw-Hyp-Hse-leu-[Cys(2Lut)-Thp-Leu-Ile-Cys]-NH2]
2. Suc-W[Trp(5-Cl)][Hyp]E[dL]C[Thp]LIC-{APAc-Lys(DOTA)-NH2} (linker 6-10 via 2Lut) [HO-Succinyl-Trp-5Clw-Hyp-Glu-leu-[Cys(2Lut)-Thp-Leu-Ile-Cys]-APAc-Lys(DOTA)-NH2]

Reply text:
["> 9 pkd", "> 9 pkd"]

Consider the following items and state reported pKD for each.
1. {NTASEROL}-DW[Trp(5-Cl)][Pro(trans-4-NH2)]E[dL]C[Api](DOTA)LIC-{APAc-GLUSEROL} (linker 7-11 via Pyridine(2,6-diCH2); reading uncertain) [NTASEROL-Asp-Trp-5Clw-Tap-Glu-leu-[Cys(2Lut)-Apc(DOTA)-Leu-Ile-Cys]-APAc-GLUSEROL]
2. {AGLU-Glutaryl}-DW[Trp(5-Cl)][Pro(trans-4-NH2)]E[dL]C[Api](DOTA(In))LIC-{APAc-dE(AGLU)-NH2} (linker 7-11 via Pyridine(2,6-diCH2)) [AGLU-Glutar-Asp-Trp-5Clw-Tap-Glu-leu-[Cys(2Lut)-Apc(InDOTA)-Leu-Ile-Cys]-APAc-glu(AGLU)-NH2]

Reply text:
1. > 9 pkd
2. > 9 pkd

Consider the following items and state reported pKD for each.
1. {AGLU-Glutaryl}-DW[Trp(5-Cl)][Pro(trans-4-NH2)]E[dL]C[Api](DOTA(Ga))LIC-{APAc-dE(AGLU)-NH2} (linker 7-11 via Pyridine(2,6-diCH2)) [AGLU-Glutar-Asp-Trp-5Clw-Tap-Glu-leu-[Cys(2Lut)-Apc(GaDOTA)-Leu-Ile-Cys]-APAc-glu(AGLU)-NH2]
2. {DOTA-Ttds}-DW[Trp(5-Cl)][Pro(trans-4-NH2)]E[dL][Dap][Api]LI[Cysteamide] (linker 7-11 via Pyridine(2,6-diCH2)) [DOTA-Ttds-Asp-Trp-5Clw-Tap-Glu-leu-[Dap(2Lut)-Apc-Leu-Ile-AET]]
3. {DOTA-APAc″}-DW[Trp(5-Cl)][Hyp]E[dL]C[Thp]LI[Cysteamide] (linker (positions not given here) via Pyridine(2,6-diCH2); not fully specified (bridges); printed as DOTA-APAc-Asp-Trp-5Clw-Hyp-Glu-leu-[Cys(2Lut)-Thp-Leu-Ile-AET]) [DOTA-APAc-Asp-Trp-5Clw-Hyp-Glu-leu-[Cys(2Lut)-Thp-Leu-Ile-AET]]
4. {DOTA(In)-APAc″}-DW[Trp(5-Cl)][Hyp]E[dL]C[Thp]LI[Cysteamide] (linker 7-11 via 2Lut; also: DOTA as indium complex (InDOTA)) [InDOTA-APAc-Asp-Trp-5Clw-Hyp-Glu-leu-[Cys(2Lut)-Thp-Leu-Ile-AET]]
5. Ac-[Cya]W[Trp(5-Cl)][Hyp]E[dL]C[Aib]LI[Cysteamide] (linker (positions not given here) via Pyridine(2,6-diCH2); not fully specified (bridges); printed as Ac-Cya-Trp-5Clw-Hyp-Glu-leu-[Cys(2Lut)-Aib-Leu-Ile-AET]) [Ac-Cya-Trp-5Clw-Hyp-Glu-leu-[Cys(2Lut)-Aib-Leu-Ile-AET]]
6. {DOTA(In)-APAc″}-DW[Trp(5-Cl)]PE[dL]C[Aib]LI[Cysteamide] (linker 7-11 via 3MeBn; also: DOTA as indium complex (InDOTA)) [InDOTA-APAc-Asp-Trp-5Clw-Pro-Glu-leu-[Cys(3MeBn)-Aib-Leu-Ile-AET]]
7. {AGLU-Glutaryl}-DW[Trp(5-Cl)][Pro(trans-4-NH2)]E[dL]C[Api](DOTA)LIC-{APAc-dE(AGLU)-NH2} (linker 7-11 via Pyridine(2,6-diCH2)) [AGLU-Glutar-Asp-Trp-5Clw-Tap-Glu-leu-[Cys(2Lut)-Apc(DOTA)-Leu-Ile-Cys]-APAc-glu(AGLU)-NH2]

Reply text:
["> 9 pkd", "> 9 pkd", "> 9 pkd", "> 9 pkd", "> 9 pkd", "> 9 pkd", "> 9 pkd"]
